# experimentalSystem: T1, human NMI (N-myc Interacting protein), recombinant protein (human, UniProt Q13287 1-307, limits assumed)
# T1 construct: Gene ID: 9111; also called hNMI; antigen
# T1 sequence (looked up): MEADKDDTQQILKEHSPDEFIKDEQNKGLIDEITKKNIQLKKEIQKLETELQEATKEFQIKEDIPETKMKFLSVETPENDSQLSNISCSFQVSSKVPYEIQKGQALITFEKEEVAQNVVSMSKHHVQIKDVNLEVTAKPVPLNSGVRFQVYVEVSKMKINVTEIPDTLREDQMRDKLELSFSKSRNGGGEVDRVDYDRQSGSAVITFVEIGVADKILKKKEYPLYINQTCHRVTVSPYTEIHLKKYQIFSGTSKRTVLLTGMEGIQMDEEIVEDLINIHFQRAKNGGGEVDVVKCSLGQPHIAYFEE
# assayRemarks: sandwich ELISA; detection 94C4-1-biotin 1µg/mL; hNMI 3,125.000 pg/mL
The following binders are shown together with reported OD450 values.
Give a bare numeral; the unit OD450 is implied.

// known answers, use as guide
binder	unitsText	OD450
monoclonal antibody 240B10-1 (antibody, V domains shown, Rabbit monoclonal antibody) VH: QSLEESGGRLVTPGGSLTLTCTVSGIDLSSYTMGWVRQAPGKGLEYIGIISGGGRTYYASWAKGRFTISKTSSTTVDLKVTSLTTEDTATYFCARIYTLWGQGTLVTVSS VL: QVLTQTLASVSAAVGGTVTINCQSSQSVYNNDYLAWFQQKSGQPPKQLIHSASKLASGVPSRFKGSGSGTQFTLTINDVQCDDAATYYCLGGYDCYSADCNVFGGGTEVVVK	OD450	0.958
monoclonal antibody 39B4 (antibody, V domains shown, Rabbit monoclonal antibody; also called 39B4-1) VH: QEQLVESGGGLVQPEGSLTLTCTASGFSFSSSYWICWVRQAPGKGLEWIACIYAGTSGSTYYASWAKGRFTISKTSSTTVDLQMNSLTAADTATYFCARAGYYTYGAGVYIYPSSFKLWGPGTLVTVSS VL: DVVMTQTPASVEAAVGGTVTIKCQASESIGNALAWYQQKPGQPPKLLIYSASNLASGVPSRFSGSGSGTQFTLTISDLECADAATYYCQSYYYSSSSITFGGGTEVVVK	OD450	0.932
monoclonal antibody B-8 (antibody, V domains shown, Rabbit monoclonal antibody; also called B8-1) VH: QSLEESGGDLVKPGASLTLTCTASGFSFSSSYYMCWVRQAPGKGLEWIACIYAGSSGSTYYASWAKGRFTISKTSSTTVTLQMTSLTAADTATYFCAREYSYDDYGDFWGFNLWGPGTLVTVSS VL: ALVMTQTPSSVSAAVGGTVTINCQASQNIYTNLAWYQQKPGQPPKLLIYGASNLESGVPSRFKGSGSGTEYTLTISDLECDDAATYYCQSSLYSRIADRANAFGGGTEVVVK	OD450	0.75

Next binder, OD450 to be filled in.
What value of measured OD450 is listed for monoclonal antibody 98G10 (antibody, V domains shown, Rabbit monoclonal antibody) VH: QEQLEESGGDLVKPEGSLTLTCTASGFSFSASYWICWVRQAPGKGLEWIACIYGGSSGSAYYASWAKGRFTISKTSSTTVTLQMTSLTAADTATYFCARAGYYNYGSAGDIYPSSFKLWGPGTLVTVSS VL: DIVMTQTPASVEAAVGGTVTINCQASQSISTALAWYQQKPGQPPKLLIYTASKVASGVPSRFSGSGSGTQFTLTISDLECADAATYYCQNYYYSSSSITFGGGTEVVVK ? 0.903
